Test system: HepG2 cells
protocol text: Glucose consumption (Amplex Red assay) in HepG2 cells
Assay type: cell-based, human
measurement setup: 10 µM; relative to vehicle-treated cells
recorded endpoint: increase in glucose consumption (uptake)

>>> observed_measurement("N#Cc1c(C(F)(F)F)cc(-c2ccc(Cl)cc2)nc1SCC(=O)Nc1ncccn1 [RTI-7470-44]")
"no significant changes"
>>> observed_measurement("Clc1cccc(N2CCNCC2)c1 [mCPP, meta-chlorophenylpiperazine]")
"no significant changes"
>>> observed_measurement("[H]/N=C(\\N)NN=Cc1c(Cl)cncc1Cl [JP-14]")
"29%"
>>> observed_measurement("NCCc1ccc(O)cc1 [tyramine]")
"32%"

This collection of values is drawn from paper PMC12563652.
